// data source = patent US20260209316A1

Target: T1, full-length Sudan GP (GPFL) (Sudan virus (SUDV), UniProt Q7T9D9 33-650)
T1 construct: also called Sudan GPFL; GP(S)FL
T1 sequence: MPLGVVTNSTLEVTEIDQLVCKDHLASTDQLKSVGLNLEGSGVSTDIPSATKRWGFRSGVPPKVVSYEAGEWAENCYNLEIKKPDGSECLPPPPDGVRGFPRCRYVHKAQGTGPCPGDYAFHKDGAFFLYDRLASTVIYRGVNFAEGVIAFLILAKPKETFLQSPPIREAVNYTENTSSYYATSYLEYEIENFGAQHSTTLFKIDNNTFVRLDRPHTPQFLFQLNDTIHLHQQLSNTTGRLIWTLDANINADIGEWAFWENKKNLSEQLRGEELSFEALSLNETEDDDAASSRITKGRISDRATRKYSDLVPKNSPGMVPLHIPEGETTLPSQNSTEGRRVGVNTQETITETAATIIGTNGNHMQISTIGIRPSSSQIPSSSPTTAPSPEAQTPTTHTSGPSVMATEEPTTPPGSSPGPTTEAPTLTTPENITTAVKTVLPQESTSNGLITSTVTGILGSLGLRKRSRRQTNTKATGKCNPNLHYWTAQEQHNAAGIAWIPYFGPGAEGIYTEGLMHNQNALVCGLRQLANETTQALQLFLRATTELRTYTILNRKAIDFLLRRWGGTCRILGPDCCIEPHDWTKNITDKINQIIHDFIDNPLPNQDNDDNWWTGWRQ
Experiment: BLI, Fab, pH 5.3
Metric: kon

INSERT INTO assay_data (binder, observed_value) VALUES
  ('Fab generated from 503S (Fab, V domains shown, also called 503S Fab) VH: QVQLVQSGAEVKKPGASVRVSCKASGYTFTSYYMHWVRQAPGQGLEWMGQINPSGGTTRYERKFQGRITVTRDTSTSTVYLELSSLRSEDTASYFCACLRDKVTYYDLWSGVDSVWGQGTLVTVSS VL: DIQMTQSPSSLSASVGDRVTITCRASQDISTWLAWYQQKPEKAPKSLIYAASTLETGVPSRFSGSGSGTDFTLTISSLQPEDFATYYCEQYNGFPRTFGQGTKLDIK', '56700 M⁻¹ s⁻¹'),
  ('Fab generated from 573S (Fab, V domains shown, also called 573S Fab) VH: EVQLVESGGGLVKPGGSLRLSCAASGFTFSSYTMNWVRQAPGKGLEWVSCIRSSSSDKYYADSVKGRFTISRDNTKNSLYLQMNSLRADDTAVYYCARDLGGANNRYYFDYGMDVWGQGTTVTVSS VL: EIVMTQSPATLSVSPGGRATLSCRASQSVYTNLAWYQQKPGQAPRLLIYDASTRATGIPARFSGSGSGTEFTLTISSLQCEDFAVYYCQHYNNWPLYTFGQGTKLEIK', '11300 M⁻¹ s⁻¹'),
  ('Fab generated from 233S (Fab, V domains shown) VH: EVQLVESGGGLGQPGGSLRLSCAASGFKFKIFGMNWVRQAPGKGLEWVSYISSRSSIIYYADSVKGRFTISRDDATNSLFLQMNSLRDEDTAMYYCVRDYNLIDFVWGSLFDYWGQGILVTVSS VL: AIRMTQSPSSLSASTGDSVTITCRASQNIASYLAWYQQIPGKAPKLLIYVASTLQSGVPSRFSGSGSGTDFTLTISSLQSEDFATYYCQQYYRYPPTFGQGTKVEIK', '47300 M⁻¹ s⁻¹'),
  ('Fab generated from 294S (Fab, V domains shown, also called 294S Fab) VH: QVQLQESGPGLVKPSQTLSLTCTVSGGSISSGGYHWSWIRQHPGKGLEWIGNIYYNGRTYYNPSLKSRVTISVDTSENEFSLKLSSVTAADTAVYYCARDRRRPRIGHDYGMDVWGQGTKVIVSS VL: DIQMTQSPSSLSASVGDRVTISCRASQSISNFLNWYQQKPGQAPKLLIYTASNLQSGVPSRFSGSGSGTDFTLTISSLQPEDFATYYCQQIYNTGMYSFGQGTKLEIK', '173000 M⁻¹ s⁻¹'),
  ('Fab generated from 541S (Fab, V domains shown, also called 541S Fab) VH: QVQLVQSGAEVKKPGASVKVSCKASGYTFTNYAITWVRQAPGQGLEWMGWISAFNGQINYAQKFQGRVAMTTDTSTSTAYMELRSLRSDDTAVYYCARAPPMWFSGAKFDYWGQGTLVTVSS VL: QSVLTQPPSVSGTPGQRVTISCSGSSSNIGSNTVNWYQQLPGTAPKLLIYSNDQRPSGVPDRFSGSKSGTSASLAISGLRSEDEADYYCAAWDETLRRVFGGGTRLTVL', '7260 M⁻¹ s⁻¹');

Please examine the following record next.
Problem: I have this binder here, Fab generated from 354S (Fab, V domains shown, also called 354S Fab) VH: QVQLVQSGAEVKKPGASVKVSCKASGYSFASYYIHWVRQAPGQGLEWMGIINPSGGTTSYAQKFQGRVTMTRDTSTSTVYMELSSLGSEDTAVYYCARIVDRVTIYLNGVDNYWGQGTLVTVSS VL: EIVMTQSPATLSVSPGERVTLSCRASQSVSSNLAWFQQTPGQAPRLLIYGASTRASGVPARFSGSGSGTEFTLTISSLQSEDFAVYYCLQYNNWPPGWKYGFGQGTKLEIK , and I need its recorded kon.
Solution: 72700 M⁻¹ s⁻¹
